# protocolSummary: Half life in cynomolgus monkey at 1 mg/kg, po
# Type: ADME, organism-based, Macaca fascicularis
# Design: dose 1 mg/kg, route oral
# testConditions: in vivo
endpointName: half-life (h)
Give just the numeric value; h need not be written.

Problem: Specify measured half-life for CCCn1c(=O)c2[nH]c([C@]34CC[C@](CCC(=O)O)(CC3)CC4)nc2n(CCC)c1=O .
Solution: 11.1

* * *

# protocolSummary: Solubility in 0.9% saline
# Format: physicochemical
Listing: solubility of selected compounds
Form entry: value (mg/mL) — number only.

Example cases with answers are listed next.
molSmiles	scaleUnit	solubility
CCCn1c(=O)c2[nH]c([C@]34CC[C@](CCC(=O)O)(CC3)CC4)nc2n(CCC)c1=O	mg/mL	25.4
CCCn1c(=O)c2[nH]c([C@H]3CC4C[C@@H]3[C@H]3O[C@@H]43)nc2n(CCC)c1=O	mg/mL	0.43

# context switch: different compound, same solubility
Problem: For the compound CCCn1c(=O)c2nc([C@]34CC[C@](C(=O)O)(CC3)CC4)[nH]c2n(CCC)c1=O , give its reported solubility.
Solution: 29.8

Data provenance is ChEMBL document CHEMBL1137359.
